# Tgt: KRAS-G12D protein (Homo sapiens, UniProt P01116, G12D)
# Sequence (P01116 1-188 isoform P01116-2 G12D): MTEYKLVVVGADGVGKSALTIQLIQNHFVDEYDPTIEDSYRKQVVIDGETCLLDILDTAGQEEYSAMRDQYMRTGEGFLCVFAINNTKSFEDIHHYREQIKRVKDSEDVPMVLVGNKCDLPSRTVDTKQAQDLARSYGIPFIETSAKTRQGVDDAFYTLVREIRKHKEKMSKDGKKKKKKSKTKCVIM
# Test: SOS-mediated nucleotide exchange assay (BODIPY-GDP / Tb-streptavidin TR-FRET)
# Assay type: biochemical
pEC50: −log10 of the molar value. *1 amine or outer side, *2 acyl side, *3 side chain or, on linkers, in order; H or OH if unused. Where a SMILES comes first, the peptide text is derived from it. Bridges are numbered along the chain shown (N, C = ends). [ ]: non-standard residue; d: D form. NMeNva(5-imidazol-1-yl) = CN[C@@H](CCCn1ccnc1)C(=O)O; Phe(4-guanidino) = N=C(N)Nc1ccc(C[C@H](N)C(=O)O)cc1; X77 = O=C([C@H](Cc1cnn(C2CCOCC2)c1)N[*:1])[*:2]; Ala(pyrimidin-5-yl) = N[C@@H](Cc1cncnc1)C(=O)O; X42 = O=C([C@H](Cc1cc(F)ncc1F)N[*:1])[*:2]; X11 = CC(C)(F)CC[C@H](N[*:1])C(=O)[*:2]; Phe(2-F) = N[C@@H](Cc1ccccc1F)C(=O)O; NMe3Pal = CN[C@@H](Cc1cccnc1)C(=O)O; X1 = O=C(C12CC(CN[*:1])(C1)C2)[*:2]; Ala(cPr) = N[C@@H](CC1CC1)C(=O)O; NMeF = CN[C@@H](Cc1ccccc1)C(=O)O; PhLac = O=C(O)[C@@H](O)Cc1ccccc1; 3Pal = N[C@@H](Cc1cccnc1)C(=O)O; X58 = O=C(C1CC(N[*:1])C1)[*:2]; Ahp(2) = CCCCC[C@H](N)C(=O)O; Cba = N[C@@H](CC1CCC1)C(=O)O; hLeu = CC(C)CC[C@H](N)C(=O)O; αMeC = C[C@](N)(CS)C(=O)O; NMeA = CN[C@@H](C)C(=O)O; Nle = CCCC[C@H](N)C(=O)O
Answer label 0 if pEC50 is under 7, and label 1 if it is 7 or more.

Consider the worked cases shown below.
INSERT INTO measurements (compound, label) VALUES
  ('CCCC[C@@H]1NC(=O)[C@H](Cc2cnn(C3CCOCC3)c2)NC(=O)[C@H](C)N(C)C(=O)[C@H](Cc2ccccc2)OC(=O)C23CC(CNC(=O)[C@H](Cc4ccccc4)N(C)C(=O)[C@H](CCCC)NC(=O)[C@H](Cc4ccccc4F)NC1=O)(C2)C3 [compound 308] (cyclo([NMeA][X77][Nle][Phe(2-F)][Nle][NMeF][X1][PhLac]))', 'label 1'),
  ('CCCC[C@@H]1NC(=O)[C@H](Cc2ccc(NC(=N)N)cc2)NC(=O)[C@H](CCCNC(=N)N)NC(=O)[C@H](Cc2ccccc2)NC(=O)C2CC(C2)NC(=O)[C@H](Cc2ccccc2)N(C)C(=O)[C@H](CCCC)NC(=O)[C@H](Cc2ccc(OC)cc2)NC1=O [compound 92] (cyclo(FR[Phe(4-guanidino)][Nle]Y(Me)[Nle][NMeF][X58]))', 'label 1'),
  ('CCCC[C@@H]1NC(=O)[C@H](Cc2ccc(O)cc2)NC(=O)[C@H](CC2CCCCC2)NC(=O)[C@H](CCCCN)NC(=O)[C@H](CCCNC(=N)N)NC(=O)[C@H](Cc2cccc3ccccc23)NC(=O)CSC[C@H](C(N)=O)NC(=O)[C@H](Cc2ccccc2)N(C)C1=O', 'label 0'),
  ('CCCC[C@@H]1NC(=O)[C@H](Cc2cccnc2)NC(=O)[C@H](C)N(C)C(=O)[C@H](Cc2ccccc2)OC(=O)C23CC(CNC(=O)[C@H](Cc4cccnc4)N(C)C(=O)[C@H](CCC(C)C)NC(=O)[C@H](Cc4ccccc4F)NC1=O)(C2)C3 [compound 124] (cyclo([3Pal][Nle][Phe(2-F)][hLeu][NMe3Pal][X1][PhLac][NMeA]))', 'label 1'),
  ('C[C@H]1C(=O)N[C@@H](Cc2cncnc2)C(=O)N[C@@H](CC2CCC2)C(=O)N[C@@H](Cc2ccccc2F)C(=O)N[C@@H](CCC(C)(C)F)C(=O)N(C)[C@@H](Cc2ccccc2)C(=O)NCC23CC(C2)(C3)C(=O)O[C@@H](Cc2ccccc2)C(=O)N1C [compound 225] (cyclo([Cba][Phe(2-F)][X11][NMeF][X1][PhLac][NMeA][Ala(pyrimidin-5-yl)]))', 'label 1');

Record `CCCCC[C@@H]1NC(=O)[C@H](Cc2ccc(O)cc2)NC(=O)[C@H](CC(C)C)NC(=O)[C@H](Cc2ccc(O)cc2)NC(=O)[C@@H](CCCNC(=N)N)NC(=O)[C@H](Cc2ccccc2)NC(=O)CSC[C@@H](C(N)=O)NC(=O)[C@H](Cc2ccccc2)N(C)C1=O` ; criterion: pEC50 no lower than 7. Met?
label 0

Record CCCCC[C@@H]1NC(=O)[C@H](Cc2ccc(OC)cc2)NC(=O)[C@H](CC2CCC2)NC(=O)[C@H](Cc2cncnc2)NC(=O)[C@H](CCCNC(=N)N)NC(=O)[C@H](Cc2ccccc2)NC(=O)CSC[C@@](C)(C(N)=O)NC(=O)[C@H](Cc2ccccc2)N(C)C1=O [compound 367] ({CH2CO}-FR[Ala(pyrimidin-5-yl)][Cba]Y(Me)[Ahp(2)][NMeF][αMeC]-NH2; thioether N-8) ; criterion: pEC50 no lower than 7. Met?
label 1

Record CON=C1C[C@@H](Cc2ccccc2)C(=O)N(C)[C@@H](C)C(=O)N[C@@H](Cc2cncnc2)C(=O)N[C@@H](CC2CC2)C(=O)N[C@@H](Cc2ccccc2F)C(=O)N[C@@H](CCC(C)(F)F)C(=O)N(C)[C@@H](Cc2ccccc2)C(=O)NCC23CC1(C2)C3 (single isomer, unassigned) [compound 177] ; criterion: pEC50 no lower than 7. Met?
label 1

Record CCCC[C@@H]1NC(=O)[C@H](Cc2cncnc2)NC(=O)[C@H](CCCn2ccnc2)N(C)C(=O)[C@H](Cc2ccccc2)OC(=O)C23CC(CNC(=O)[C@H](Cc4cccnc4)N(C)C(=O)[C@H](CCCC)NC(=O)[C@H](Cc4ccccc4F)NC1=O)(C2)C3 [compound 240] (cyclo([NMe3Pal][X1][PhLac][NMeNva(5-imidazol-1-yl)][Ala(pyrimidin-5-yl)][Nle][Phe(2-F)][Nle])) ; criterion: pEC50 no lower than 7. Met?
label 1

Record CC(C)CC[C@@H]1NC(=O)[C@H](Cc2cc(F)ncc2F)NC(=O)[C@H](CC2CC2)NC(=O)[C@H](Cc2cncnc2)NC(=O)[C@H](C)N(C)C(=O)[C@H](Cc2ccccc2)OC(=O)C23CC(CNC(=O)[C@H](Cc4ccccc4)N(C)C1=O)(C2)C3 [compound 280] (cyclo([Ala(cPr)][X42][hLeu][NMeF][X1][PhLac][NMeA][Ala(pyrimidin-5-yl)])) ; criterion: pEC50 no lower than 7. Met?
label 1

* * *

# Tgt: KRAS-G12D protein (Homo sapiens, UniProt P01116, G12D)
# Test: SOS-mediated nucleotide exchange assay (BODIPY-GDP / Tb-streptavidin TR-FRET)
# Assay type: biochemical
pEC50: −log10 of the molar value. *1 amine or outer side, *2 acyl side, *3 side chain or, on linkers, in order; H or OH if unused. Where a SMILES comes first, the peptide text is derived from it. Bridges are numbered along the chain shown (N, C = ends). [ ]: non-standard residue; d: D form. cBu(1-CO,cis-3-CH2NH) = O=C([C@H]1C[C@@H](CN[*:1])C1)[*:2]; Phe(4-guanidino) = N=C(N)Nc1ccc(C[C@H](N)C(=O)O)cc1; X22 = CNC(=N)N(C)CCC[C@@H](C(=O)[*:2])N(C)[*:1]; Abu(4,4,4-F3) = N[C@@H](CC(F)(F)F)C(=O)O; Phe(2-F) = N[C@@H](Cc1ccccc1F)C(=O)O; X1 = O=C(C12CC(CN[*:1])(C1)C2)[*:2]; NMeR = CN[C@@H](CCCNC(=N)N)C(=O)O; NMeF = CN[C@@H](Cc1ccccc1)C(=O)O; PhLac = O=C(O)[C@@H](O)Cc1ccccc1; 3Pal = N[C@@H](Cc1cccnc1)C(=O)O; Cba = N[C@@H](CC1CCC1)C(=O)O; αMeC = C[C@](N)(CS)C(=O)O; Nle = CCCC[C@H](N)C(=O)O; Nva = CCC[C@H](N)C(=O)O
Answer not fulfilled if pEC50 is under 7, and fulfilled if it is 7 or more.

INSERT INTO measurements (compound, label) VALUES
  ('CCCC[C@@H]1NC(=O)[C@H](Cc2cccnc2)NC(=O)[C@H](CCCNC(=N)N)NC(=O)[C@H](Cc2ccccc2)OC(=O)C23CC(CNC(=O)[C@H](Cc4ccccc4)N(C)C(=O)[C@H](CCCC)NC(=O)[C@H](Cc4ccccc4F)NC1=O)(C2)C3 [compound 212] (cyclo([PhLac]R[3Pal][Nle][Phe(2-F)][Nle][NMeF][X1]))', 'fulfilled'),
  ('CCCC[C@@H]1NC(=O)[C@H](CC(F)(F)F)NC(=O)[C@H](CC2CCC2)NC(=O)[C@H](Cc2cccnc2)NC(=O)[C@H](CCCNC(=N)N)NC(=O)[C@H](Cc2ccccc2)NC(=O)CSC[C@@](C)(C(N)=O)NC(=O)[C@H](Cc2ccccc2)N(C)C1=O [compound 54] ({CH2CO}-FR[3Pal][Cba][Abu(4,4,4-F3)][Nle][NMeF][αMeC]-NH2; thioether N-8)', 'not fulfilled'),
  ('CCCC[C@@H]1NC(=O)[C@H](Cc2ccc(NC(=N)N)cc2)NC(=O)[C@H](CCCN(C)C(=N)NC)N(C)C(=O)[C@H](Cc2ccccc2)NC(=O)[C@H]2C[C@@H](CNC(=O)[C@H](Cc3ccccc3)N(C)C(=O)[C@H](CCCC)NC(=O)[C@H](Cc3ccc(OC)cc3)NC1=O)C2 [compound 384] (cyclo(F[X22][Phe(4-guanidino)][Nle]Y(Me)[Nle][NMeF][cBu(1-CO,cis-3-CH2NH)]))', 'not fulfilled'),
  ('CCC[C@@H]1NC(=O)[C@H](Cc2ccc(O)cc2)NC(=O)[C@H](CC(C)C)NC(=O)[C@H](Cc2ccc(O)cc2)NC(=O)[C@H](CCCNC(=N)N)N(C)C(=O)[C@H](Cc2ccccc2)NC(=O)CSC[C@H](C(N)=O)NC(=O)[C@H](Cc2ccccc2)N(C)C1=O [compound 176, cyclo(F-NMeR-Y-L-Y-Nva-NMeF-dCl-ClAc)] ({CH2CO}-F[NMeR]YLY[Nva][NMeF][dC]-NH2; thioether N-8)', 'not fulfilled'),
  ('CCCC[C@@H]1NC(=O)[C@H](CCCCN)NC(=O)[C@H](CCCNC(=N)N)NC(=O)[C@H](Cc2cccc3ccccc23)NC(=O)CSC[C@H](C(N)=O)NC(=O)[C@H](Cc2ccccc2)N(C)C(=O)[C@H](CCCC)NC(=O)[C@H](Cc2ccc(O)cc2)NC1=O', 'not fulfilled');

Record `CCCCC[C@@H]1NC(=O)[C@H](Cc2ccc(O)cc2)NC(=O)[C@H](CC(C)C)NC(=O)[C@H](Cc2ccc(O)cc2)NC(=O)[C@H](CCCNC(=N)N)NC(=O)[C@H](Cc2ccccc2)NC(=O)CSC[C@H](C(N)=O)NC(=O)[C@H](Cc2ccccc2)N(C)C1=O` ; criterion: pEC50 no lower than 7. Met?
not fulfilled
